# TESTED_ON: human PAR-2 (hPAR-2) receptor expressed in HEK-293 T cells in an endogenous manner (Homo sapiens, UniProt P55085)
# Construct: human PAR-2 (hPAR-2) receptor expressed in HEK-293 T cells in an endogenous manner; endogenous in cells
# Sequence (P55085 26-397): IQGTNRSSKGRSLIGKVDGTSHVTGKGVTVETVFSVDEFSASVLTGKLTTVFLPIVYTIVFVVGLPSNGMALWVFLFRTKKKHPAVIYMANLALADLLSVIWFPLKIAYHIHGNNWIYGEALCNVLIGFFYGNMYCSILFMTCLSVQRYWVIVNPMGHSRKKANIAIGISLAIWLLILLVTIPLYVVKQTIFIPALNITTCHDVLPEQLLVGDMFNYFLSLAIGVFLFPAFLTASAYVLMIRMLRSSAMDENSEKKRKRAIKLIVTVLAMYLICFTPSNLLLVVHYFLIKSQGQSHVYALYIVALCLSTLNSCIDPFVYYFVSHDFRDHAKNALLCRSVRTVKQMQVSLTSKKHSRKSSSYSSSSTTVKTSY
# EXPERIMENT_SUMMARY: In vitro human PAR-2 functional antagonist activity using calcium assays (Fluo4AM, FLIPR Tetra)
# EXPERIMENTAL_CONTEXT: HEK-293 T cells stimulated by an EC80 of the 2-Furoyl-LIGRLO-NH2 peptide after 10 min incubation with compound; 20 concentrations, duplicate, two independent experiments
pIC50: −log10 of the molar value. Counter-ions that a name gives are not always drawn.
RECORDED_ENDPOINT: pIC50

Consider the following illustrative entries.
1. CC(C)Cn1cc(-c2ccc(F)cc2)c2ccc(C(=O)N3CCNC(=O)C3(C)C)nc21 [Example 56] ... 5.00 to 7.70
2. CC[C@H](C)n1cc(-c2ccc(Cl)c(F)c2)c2ccc(C(=O)N3CCN(c4cc(C)c(C(=O)O)c(C)n4)CC3(C)C)nc21 [Example 172] ... > 7.70
3. Cc1cc(N2CCN(C(=O)c3ccc4c(-c5ccc(Cl)c(F)c5)cn(C)c4n3)C(C)(C)C2)nc(C)c1C(=O)O [Example 122, hydrochloride] ... 5.00 to 7.70

Q: // pIC50 lookup, key: CC(C)Cn1cc(-c2cncnc2)c2ccc(C(=O)N3CCNC(=O)C3(C)C)nc21 [Example 36]
A: < 5.00

Q: Returns the measured pIC50 for the input compound. Input: CC1(C)CN(C(=O)c2ccc3c(-c4ccc(Cl)c(F)c4)cn(C(C)(C)C)c3n2)CCC1C(N)=O (stereo not shown) [Example 23]
A: 5.00 to 7.70

Q: Query (compound): CC(C)(C)n1cc(-c2ccc(Cl)c(F)c2)c2ccc(C(=O)N3CC4(COC4)C3)nc21 [Example 10] ; field requested: pIC50
A: < 5.00

Q: Item under review: Cc1cc(NC2CCN(C(=O)c3ccc4c(-c5ccc(Cl)c(F)c5)cn(C(C)(C)C)c4n3)CC2C)nc(C)c1C(=O)O (stereo not shown) [Example 198] . Reported pIC50?
A: 5.00 to 7.70

Q: Can you share its pIC50? I mean this compound: CN1CNC(=O)C12CCN(C(=O)c1ccc3c(-c4ccc(Cl)c(F)c4)cn(C(C)(C)C)c3n1)CC2 [Example 209]
A: < 5.00

Q: # get_value(readout='pIC50', item= CC(C)(C)n1cc(-c2ccc(Cl)c(F)c2)c2ccc(C(=O)N3CCN(c4cn[nH]c(=O)c4)CC3)nc21 [Example 208] )
A: < 5.00

Q: Quick check: pIC50 of CC(C)Cc1nn(-c2ccc(OC(F)(F)F)cc2)c2ccc(C(=O)N3CCNC(=O)C3(C)C)nc12 [Example 79] ?
A: 5.00 to 7.70

Q: Param item = CC(C)Cc1nn(-c2ccccc2Cl)c2ccc(C(=O)N3CCNC(=O)C3(C)C)nc12 [Example 74] ; retrieve measured pIC50.
A: < 5.00

Q: Please report the recorded pIC50 for CC(C)(C)n1cc(-c2ccc(Cl)c(F)c2)c2ccc(C(=O)N3[C@@H]4CC[C@H]3COC4)nc21 [Example 19] .
A: 5.00 to 7.70

Q: Look at this compound and give its reported pIC50. CC(C)Cn1cc(C2CCOCC2)c2ccc(C(=O)N3CCNC(=O)C3(C)C)nc21 [Example 46]
A: < 5.00

Q: # lookup: pIC50 of Cc1cc(N2CCN(C(=O)c3ccc4c(-c5ccc(Cl)c(F)c5)cn(C5(C)CCC5)c4n3)C(C)(C)C2)nc(C)c1C(=O)O [Example 121]
A: > 7.70

Q: Which pIC50 reading was recorded for the compound COc1ccc(-c2cn(CC(C)C)c3nc(C(=O)N4CCNC(=O)C4(C)C)ccc23)cc1OC [Example 145] ?
A: < 5.00

Q: GET /values?readout=pIC50&item= Cc1cc(N2CCN(C(=O)c3ccc4c(-c5ccc(Cl)c(F)c5)cn(C[C@@H]5CCCO5)c4n3)C(C)(C)C2)nc(C)c1C(=O)O [Example 211]
A: > 7.70

Q: What measured pIC50 goes with Cc1cc(N2CCN(C(=O)c3ccc4c(-c5ccc(Cl)c(F)c5)cn(Cc5cnccn5)c4n3)C(C)(C)C2)nc(C)c1C(=O)O [Example 103] ?
A: 5.00 to 7.70

Q: Quick one: pIC50 for CC(C)n1cc(-c2ccc(Cl)c(F)c2)c2ccc(C(=O)N3CCNC(=O)C3(C)C)nc21 [Example 96] ?
A: > 7.70

Q: Can you share its pIC50? I mean this compound: CC(C)Cn1cc(-c2ccccc2Cl)c2ccc(C(=O)N3CCNC(=O)C3(C)C)nc21 [Example 53]
A: 5.00 to 7.70

Q: // lookup pIC50 for Cc1cc(N2CCN(C(=O)c3ccc4c(-c5ccc(Cl)c(F)c5)nn(C(C)(C)C)c4n3)C(C)(C)C2)nc(C)c1C(=O)O [Example 87]
A: 5.00 to 7.70

Q: Requested field: pIC50. Item: Cc1cc(N2CCN(C(=O)c3cc(C)c4c(-c5ccc(Cl)c(F)c5)cn(CC(C)C)c4n3)CC2)nc(C)c1C(=O)O [Example 189]
A: < 5.00

###

Readings of pIC50 for the listed molecules
# TESTED_ON: human PAR-2 (hPAR-2) receptor expressed in HEK-293 T cells in an endogenous manner (Homo sapiens, UniProt P55085)
# Construct: human PAR-2 (hPAR-2) receptor expressed in HEK-293 T cells in an endogenous manner; endogenous in cells
# EXPERIMENT_SUMMARY: In vitro human PAR-2 functional antagonist activity using calcium assays (Fluo4AM, FLIPR Tetra)
# EXPERIMENTAL_CONTEXT: HEK-293 T cells stimulated by an EC80 of the 2-Furoyl-LIGRLO-NH2 peptide after 10 min incubation with compound; 20 concentrations, duplicate, two independent experiments
pIC50: −log10 of the molar value. Structures can show the parent of a compound that is named as a salt.

// known answers, use as guide
1. Cc1cc(N2CCN(C(=O)c3ccc4c(-c5cc(F)c(F)c(F)c5)cn(CC(C)C)c4n3)C(C)(C)C2)nc(C)c1C(=O)O ... > 7.70
2. Cc1ccc(-c2cn(CC(C)C)c3nc(C(=O)N4CCN(c5cc(C)c(C(=O)O)c(C)n5)CC4(C)C)ccc23)cc1F ... > 7.70
3. O=C(c1cc2c(cn1)c(-c1ccc(Cl)c(F)c1)nn2CC(F)(F)F)N1CCCOCC1 ... < 5.00
4. CC(C)(C)n1cc(-c2ccc(Cl)c(F)c2)c2ccc(C(=O)N3CCC4(CCNC4=O)CC3)nc21 ... 5.00 to 7.70

Q: Need pIC50, item `CC1(C)CN(c2ccc(P(=O)(O)O)cn2)CCN1C(=O)c1ccc2c(-c3ccc(Cl)c(F)c3)cn(C(C)(C)C)c2n1`
A: < 5.00

Q: Looking for the measured pIC50 of `CC(C)Cn1cc(-c2ccc(N(C)C)nc2)c2ccc(C(=O)N3CCNC(=O)C3(C)C)nc21` , can you help?
A: 5.00 to 7.70

Q: Form field: reported pIC50 of Cc1cccc(Cn2cc(-c3ccc(Cl)c(F)c3)c3ccc(C(=O)N4CCN(c5cc(C)c(C(=O)O)c(C)n5)CC4(C)C)nc32)n1 [Example 192, hydrochloride]
A: > 7.70

###

# pIC50 per entry
# TESTED_ON: human PAR-2 (hPAR-2) receptor expressed in HEK-293 T cells in an endogenous manner (Homo sapiens, UniProt P55085)
# Construct: human PAR-2 (hPAR-2) receptor expressed in HEK-293 T cells in an endogenous manner; endogenous in cells
# EXPERIMENT_SUMMARY: In vitro human PAR-2 functional antagonist activity using calcium assays (Fluo4AM, FLIPR Tetra)
# EXPERIMENTAL_CONTEXT: HEK-293 T cells stimulated by an EC80 of the 2-Furoyl-LIGRLO-NH2 peptide after 10 min incubation with compound; 20 concentrations, duplicate, two independent experiments
pIC50: −log10 of the molar value. Where a name gives a salt, the structure may show the parent alone.

1) Cc1cc(N2CCN(C(=O)c3ccc4c(-c5ccc(Cl)c(F)c5)cn(C(C)(C)C)c4n3)[C@H](C)C2)nc(C)c1C(=O)O [Example 130] ... 5.00 to 7.70
2) CC1(C)CN(c2ccc(C(=O)O)cn2)CCN1C(=O)c1ccc2c(-c3ccc(Cl)c(F)c3)cn(C(C)(C)C)c2n1 [Example 137] ... > 7.70
3) CC1(C)CN(C(=O)c2ccc3c(-c4ccc(Cl)c(F)c4)cn(C(C)(C)C)c3n2)CCC1C(=O)O (stereo not drawn) [Example 22] ... 5.00 to 7.70
4) CC1(C)C(=O)NCCN1C(=O)c1ccc2c(-c3ccc(Cl)c(F)c3)cn(C3CCOCC3)c2n1 [Example 30] ... 5.00 to 7.70
5) COC[C@@H](C)n1cc(-c2ccc(Cl)c(F)c2)c2ccc(C(=O)N3CCN(c4cc(C)c(C(=O)O)c(C)n4)CC3(C)C)nc21 [Example 140] ... > 7.70
6) CC(C)Cn1cc(-c2cnn(C)c2)c2ccc(C(=O)N3CCNC(=O)C3(C)C)nc21 [Example 44] ... < 5.00

Q: Quick one: pIC50 of Cn1cc(-c2ccc(Cl)c(F)c2)c2ccc(C(=O)N3CCNC(=O)C3(C)C)nc21 [Example 34] ?
A: 5.00 to 7.70

Q: What measured pIC50 goes with CC(C)Cn1cc(C2=CCN(C)CC2)c2ccc(C(=O)N3CCNC(=O)C3(C)C)nc21 [Example 91, hydrochloride] ?
A: < 5.00
